Taken from PubChem BioAssay (NCI).

Test system: SN12C renal
Assay: NCI tumour cell line growth inhibition, 48 h; in the data active = GI50 below about 0.43 µM; inactive = the rest
Labels: active, inactive

molecule	cat
Nc1ncnc2c1c(-c1ccc(Oc3ccccc3)cc1)nn2CC1SSCC1O (stereo not drawn)	inactive
N#CN1CC[C@H](C(=O)Nc2ncc(-c3ccccc3)s2)C1	inactive
Oc1cn(-c2ccc(Cl)cc2)nc1-c1n[nH]c(=S)n1-c1ccc(F)cc1	inactive
COc1ccc([C@@]23Oc4cc(OC)cc(OC)c4[C@]2(O)[C@H](O)[C@H](C(=O)N(C)C)[C@H]3c2ccccc2)cc1	active
CC[n+]1c(-c2ccccc2)c2cc(N)ccc2c2ccc(N)cc21	active
CC(=O)Nc1cccc(C#Cc2cncnc2Nc2ccc(OCc3cccc(F)c3)c(Cl)c2)c1	inactive
Cc1ccccc1Nc1cc(O)c2c(=O)cc(-c3ccccc3)oc2c1	inactive
O=C1Nc2ccc(-c3cccnc3)cc2/C1=C/c1cc(Br)c(O)c(Br)c1	inactive
O=c1[nH]c(=S)[nH]c(O)c1/C=C1\C=Nc2ccccc21	inactive
O=C(Nc1nc2ccc(S(=O)(=O)Nc3ccc(C4(C(F)(F)F)CC4)cc3)cc2[nH]1)c1cnccn1	inactive
C/C(=N\NC(=S)N1CCC1)c1ccccn1	active
C#COc1cccc(Nc2ncnc3cc(NC(=O)[C@@H](C)Cl)ccc23)c1	inactive
O=c1[nH]c2ccccc2cc1-c1nnc(Cc2ccccc2)o1	inactive

====

Tested on: U251 CNS
Assay: NCI tumour cell line growth inhibition, 48 h
readout: log10 of TGI (log10 of the value in µM)

molecule	test target	log10 of TGI
Cn1c2c(c3c(=O)[nH]ncc31)Cc1ccccc1-2	U251 CNS	1.93
O=C(/C=C/c1ccccc1)c1cc(CN2CCOCC2)c(O)c(CN2CCOCC2)c1	U251 CNS	1.21
CCc1ccc(Oc2c(-c3ccc(OCc4ccc(Cl)cc4)cc3O)nn(C)c2C(F)(F)F)cc1	U251 CNS	0.13
Nc1ncnc2c1c(-c1ccc(Oc3ccccc3)cc1)nn2CC1SSCC1O (stereo not given)	U251 CNS	0.98
COc1ccc(-c2cnc(-c3ccncc3-c3cccc(OC)c3)o2)cc1	U251 CNS	1.13
C[C@]12CCc3nc(Nc4ccc(O)cc4)sc3C1=CC[C@@H]1[C@@H]2CC[C@]2(C)/C(=N/NC(N)=S)CC[C@@H]12	U251 CNS	0.41
CC1(C)CCC[C@@]2(C)C1CC[C@@]1(CO)O[C@H](C3=CC(=O)OC3O)C[C@H]12 (stereo not given in full)	U251 CNS	1.45
COC(=O)[C@]12CC[C@@H](C)[C@H](C)[C@@H]1C1=CC[C@@H]3[C@@]4(C)C(C=O)=C[C@@](C)(COS(C)(=O)=O)C4=CC[C@@]3(C)[C@]1(C)CC2	U251 CNS	-0.22
C/C(CCN(C)C)=N/O	U251 CNS	1.16

====

Measured TGI by item
Test system: HOP-92 NSCLC
Assay: NCI tumour cell line growth inhibition, 48 h

compound	test target	TGI
CCOC(=O)[C@@H](C)C[C@H](Cc1ccccc1)NC(=O)c1csc([C@@H](C[C@H](C(C)C)N(C)C(=O)CNC(=O)[C@H]2CCCCN2C)OC(C)=O)n1	HOP-92 NSCLC	2.63 µM
CC(C)CNP(=O)(NCC(C)C)Oc1ccc(CC(NC(=O)OCc2ccccc2)C(=O)OCc2ccccc2)cc1 (stereo not given)	HOP-92 NSCLC	> 100 µM
CC(C)C(NCc1c2ccccc2[n+](C)c2ccccc12)C(=O)O (stereo not given)	HOP-92 NSCLC	12.5 µM
CCCCCCC(=O)OC[n+]1ccc2c(C)c3[nH]c4ccc(OC)cc4c3c(C)c2c1	HOP-92 NSCLC	3.49 µM
C#COc1cccc(Nc2ncnc3cc(NC(=O)[C@@H](C)Cl)ccc23)c1	HOP-92 NSCLC	> 62.5 µM

====

Tested on: SF-268 CNS
Assay: NCI tumour cell line growth inhibition, 48 h
Kind request: treat 30 µM as inclusive, so TGI at 30 µM or higher is label 1, anything lower is label 0.

molecule	cat
O=[N+]([O-])/C=C/c1ccc2ccccc2c1	label 1
COc1ccc(C(=CCC(C)C2CCC3[C@@H]4C(OC(C)=O)CC5CC(OC(C)=O)CC[C@]5(C)C4CC(OC(C)=O)[C@]23C)c2ccc(OC)cc2)cc1 (some centres not stated)	label 1
OCCNc1nc2ccccc2c2[nH]c3ccccc3c12	label 0
COc1cc2c(cc1O)C(Cc1ccc(OCc3ccccc3)c(OCc3ccccc3)c1)N(C(=O)NCCc1ccccc1)CC2 (configuration not stated)	label 1
O=[N+]([O-])c1cccnc1S(=O)(=O)c1ccccc1	label 0
Nc1c(C(=O)O)c2ccc([N+](=O)[O-])cc2c(=O)n1-c1nc2ccccc2s1	label 1
COS(=O)c1cc(Cl)cc(Cl)c1OC(=O)CSSCC(=O)Oc1c(Cl)cc(Cl)cc1S(=O)OC (configuration not stated)	label 1
COc1ccc2oc(=O)c(-c3cc4c(c(C)n3)c(=O)oc3ccc(OC)cc34)cc2c1	label 1
CO[C@H]1C(=O)[C@]2(C)[C@@H](OC)C[C@H]3OC[C@@]3(OC(C)=O)[C@H]2[C@H](OC(=O)c2ccccc2)[C@]2(O)C[C@H](OC(=O)[C@H](O)[C@@H](NC(=O)OC(C)(C)C)c3ccccc3)C(C)=C1C2(C)C	label 1
CC1CCCP(=O)(c2ccccc2)CCC1 (configuration not stated)	label 1
Cc1ccc2ccc3c4ccccc4ccc3c2c1	label 1
Cc1ccc(-n2nc(C(OC3OC(CO)C(O)C(O)C3O)C(O)CO)c3nc4cc(C)c(C)cc4nc32)cc1 (configuration not stated)	label 1
O=c1[nH]c2c(Nc3c4ccccc4nc4ccccc34)c([N+](=O)[O-])c(Nc3c4ccccc4nc4ccccc34)c([N+](=O)[O-])c2[nH]1	label 0
COc1cc(C=O)cc(C=Nc2ccc(Br)cc2)c1O	label 0
O=c1[nH]c(=S)[nH]c(O)c1/C=C1\C=Nc2ccccc21	label 0
CCC12CCC[C@@]13C=C[C@H](O3)C(C)(C)C2=O (some centres not stated)	label 1
CC(=O)c1c(-c2ccc(Cl)cc2)c(C#N)c(=S)n(C2OC(CO)C(O)C(O)C2O)c1C (configuration not stated)	label 1
O=C(Nc1nc(=S)[nH][nH]1)C(=O)C(c1cnc2ccc([N+](=O)[O-])cc2n1)[N+](=O)[O-] (configuration not stated)	label 1
CCOC(=O)C1C(c2ccc(Br)cc2)N(Cc2ccccc2)C(c2ccc(Br)cc2)C(C(=O)OC)S1(=O)=O (configuration not stated)	label 1
C/C(CCN(C)C)=N/O	label 0

====

Measured TGI by item
System: HCT-116 colon
Experiment: NCI tumour cell line growth inhibition, 48 h

compound	TGI
Cc1ccc(C(=O)Nc2ccc(Oc3cc4cnn(C)c4cc3-c3cn[nH]c3)c(F)c2)c(=O)n1-c1ccc(F)cc1	> 100 µM
COc1cc(C=O)cc(C=Nc2ccc(Br)cc2)c1O	> 100 µM
Cc1nnc(SCc2nc(C#N)c(C#N)nc2CSc2nnc(C)s2)s1	11.5 µM
CCOC(=O)N1CCNCCN(C(=O)OCC)CCNCC1	> 100 µM
CNC(=O)OCc1nc(SSc2nc(COC(=O)NC)c(COC(=O)NC)n2C)n(C)c1COC(=O)NC	> 100 µM
Cc1cc(-c2ccc(N=Nc3ccc4c(S(=O)(=O)O)cc(S(=O)(=O)O)c(N)c4c3O)c(C)c2)ccc1N=Nc1ccc2c(S(=O)(=O)O)cc(S(=O)(=O)O)c(N)c2c1O	> 100 µM
S=C(Sc1ccc(Cl)cc1)Sc1ccc(Cl)cc1	3.53 µM
CCCCCCCCCCCCOCC(COP(=O)(O)OCCN=[N+]=[N-])OC(=O)CCCCCCCCCCC (centres undefined)	> 100 µM
CC(C)OC(=O)C(NC(=O)C(CC(=O)OCc1ccccc1)NC(=O)OCc1ccccc1)NC(=O)C1C(C)(C)CCC1(C)C (centres undefined)	12 µM

====

Tested on: RXF 393 renal
Assay: NCI tumour cell line growth inhibition, 48 h; in the data active means GI50 below about 0.43 µM; inactive means the rest
Labels: YES (active), NO (inactive)

query smiles	cat
O=C(CCCCN1CCN(CCCCC(=O)Nc2ccccc2C#C/C=C\C#Cc2ccccc2C(F)(F)F)CC1)Nc1ccccc1C#C/C=C\C#Cc1ccccc1C(F)(F)F	NO
COc1cccc(-c2cc(=O)c3cc(N4CCN(C)CC4)ccc3[nH]2)c1	YES
COC(=O)[C@]12CC[C@@H](C)[C@H](C)[C@@H]1C1=CC[C@@H]3[C@@]4(C)C(C=O)=C[C@@](C)(COS(C)(=O)=O)C4=CC[C@@]3(C)[C@]1(C)CC2	YES
CN(C)CCCOc1ccc(NC2=C(Cl)C(=O)C(Nc3ccc(OCCCN(C)C)cc3)=C(Cl)C2=O)cc1	NO
O=c1[nH]c(=S)[nH]c(O)c1/C=C1\C=Nc2ccccc21	NO
Cc1ccccc1Nc1cc(O)c2c(=O)cc(-c3ccccc3)oc2c1	NO
Cc1ccc2ccc3c4ccccc4ccc3c2c1	NO

====

Test system: HT29 colon
Assay: NCI tumour cell line growth inhibition, 48 h; in the data active = GI50 below about 0.43 µM; inactive = the rest
Labels: active, inactive

molecule	cat
C#COc1cccc(Nc2ncnc3cc(NC(=O)[C@@H](C)Cl)ccc23)c1	inactive
O=C(Nc1ccc(-n2cc(-c3ccncc3)c(-c3ccc(Cl)c(O)c3)n2)cc1)c1cc(C(F)(F)F)cc(C(F)(F)F)c1	inactive
C/C(=C/CCC(C)[C@@H]1CC[C@]2(C)C3=C(CC[C@@]12C)[C@@]1(C)CCC(=O)C(C)(C)[C@@H]1CC3)C(=O)O (stereo not given in full)	inactive
Cn1cc(-c2ccc3ncc(-c4ccc(CC(=O)Nc5cc(C(C)(C)C)nn5C)cc4)cc3c2)cn1	inactive
COc1cccc(-c2cc(=O)c3cc(N4CCN(C)CC4)ccc3[nH]2)c1	inactive
O=C1c2ccccc2-c2c1c1ccccc1c(=O)n2CCCNCCNCCCn1c2c(c3ccccc3c1=O)C(=O)c1ccccc1-2	active
COC(=O)[C@]12CC[C@@H](C)[C@H](C)[C@@H]1C1=CC[C@@H]3[C@@]4(C)C(C=O)=C[C@@](C)(COS(C)(=O)=O)C4=CC[C@@]3(C)[C@]1(C)CC2	active
C/C(=N\NC(=S)N1CCC1)c1ccccn1	active
CCc1ccc(Oc2c(-c3ccc(OCc4ccc(Cl)cc4)cc3O)nn(C)c2C(F)(F)F)cc1	inactive
Nc1ncnc2c1c(-c1ccc(Oc3ccccc3)cc1)nn2CC1SSCC1O (stereo not given)	inactive
O=c1[nH]c2ccccc2cc1-c1nnc(Cc2ccccc2)o1	inactive
Cc1ccc(C(=O)Nc2ccc(Oc3cc4cnn(C)c4cc3-c3cn[nH]c3)c(F)c2)c(=O)n1-c1ccc(F)cc1	inactive
COc1cccc(/C=N/[N-]C(N)=O)c1[O-].[Cu+2].[OH3+]	inactive
OCC1OC(OC2(CO)OC(CO)C(O)C2O)C(O)C(O)C1O (stereo not given)	inactive
CO[C@H]1C(=O)[C@]2(C)[C@@H](OC)C[C@H]3OC[C@@]3(OC(C)=O)[C@H]2[C@H](OC(=O)c2ccccc2)[C@]2(O)C[C@H](OC(=O)[C@H](O)[C@@H](NC(=O)OC(C)(C)C)c3ccccc3)C(C)=C1C2(C)C	active
